Source: patent US20090226398A1

Reported pEC50 values are given for each entry in this list.
Test system: HCV replication
Assay: Replicon Assay (Huh-lucubineo-ET cells, luciferase readout)
Type: cell-based
Conditions: Hepatitis C virus; ET (Huh-lucubineo-ET) HCV replicon cell line; luciferase activity 48-72 hours after compound addition; 6 dilutions
Description: A cell line, ET (Huh-lucubineo-ET) was used for screening of compounds of the present invention for inhibition of HCV replication. […] Luciferase activity was measured 48-72 hours later by adding a lysis buffer and the substrate (Catalog number Glo-lysis buffer E2661 and Bright-Glo luciferase system E2620 Promega, Madison, Wis.). […] EC50 and similarly TC50 values were calculated by fitting % inhibition at each concentration to the following equation: […]
Scale note: pEC50 = -log10(concentration in M).

Examples from the recorded data:
INSERT INTO measurements (molecule, quantity, meas_value) VALUES
  ('CCCOc1ccc(-c2ccc(Cn3cc4nc(-c5ccccc5F)nc-4cn3)nn2)c(C(F)(F)F)c1 [Compound 316]', 'pEC50', 7.49),
  ('COc1ccc(-c2ccc(Cn3cc4nc(-c5cccc(F)c5F)nc-4cn3)c([N+](=O)[O-])c2)c(C(F)(F)F)c1 [Compound 201]', 'pEC50', 7.30);

get_value(item= Fc1cccc(-c2nc3cnn(Cc4ccc(-c5ccc(-c6cccs6)cc5C(F)(F)F)nn4)cc-3n2)c1F [Compound 354] , readout=pEC50) returns 6.65

----------
Test system: HCV replication
Experiment: Replicon Assay (Huh-lucubineo-ET cells, luciferase readout)
Assay type: cell-based
Conditions: Hepatitis C virus; ET (Huh-lucubineo-ET) HCV replicon cell line; luciferase activity 48-72 hours after compound addition; 6 dilutions
# EC50 per record follows
Enter your answer as a number in nM; do not include the unit.

// solved cases for EC50 follow
INSERT INTO measurements (chemical_string, output_unit, meas_value) VALUES
  ('Fc1cccc(-c2nc3cnn(Cc4ccc(-c5ccc(C(F)(F)F)cc5C(F)(F)F)nn4)cc-3n2)c1F', 'nM', 60),
  ('Fc1cccc(-c2nc3cnn(Cc4ccc(-c5ccc(C(F)(F)F)cc5)cc4)cc-3n2)c1F', 'nM', 13700),
  ('Fc1cccc(-c2nc3cnn(Cc4ccc(-c5ccc(C(F)(F)F)cc5Cl)nc4)cc-3n2)c1F', 'nM', 119);

Now look at this entry.
// returns EC50 for COc1ccc(-c2ncc(Cn3cc4nc(-c5cccc(F)c5F)nc-4cn3)cn2)c(C(F)(F)F)c1 with HCV replication; value = 49

----------
Listing: pEC50 of selected compounds
Tested on: HCV replication
Assay: Replicon Assay (Huh-lucubineo-ET cells, luciferase readout)
Assay type: cell-based
Conditions: Hepatitis C virus; ET (Huh-lucubineo-ET) HCV replicon cell line; luciferase activity 48-72 hours after compound addition; 6 dilutions
Method: A cell line, ET (Huh-lucubineo-ET) was used for screening of compounds of the present invention for inhibition of HCV replication. […] Luciferase activity was measured 48-72 hours later by adding a lysis buffer and the substrate (Catalog number Glo-lysis buffer E2661 and Bright-Glo luciferase system E2620 Promega, Madison, Wis.). […] EC50 and similarly TC50 values were calculated by fitting % inhibition at each concentration to the following equation: […]
In textbook form, pEC50 equals minus log to base ten of the concentration in mol/L.

INSERT INTO measurements (compound, system, meas_value) VALUES
  ('COc1ccc(-c2ccc(Cn3cc4nc(-c5cccc(F)c5F)nc-4cn3)c(OCCCO)c2)c(C(F)(F)F)c1 [Compound 348]', 'HCV replication', 6.55),
  ('CCCOc1ccc(-c2ccc(Cn3cc4nc(-c5cccc(F)c5F)nc-4cn3)cc2)cc1 [Compound 109]', 'HCV replication', 4.52),
  ('CC(O)COc1ccc(-c2ccc(Cn3cc4nc(-c5cccc(F)c5F)nc-4cn3)nn2)c(C(F)(F)F)c1 (centres unmarked) [Compound 319]', 'HCV replication', 5.34);

The compound identified as COc1ccc(-c2ccc(Cn3cc4nc(-c5cccc(F)c5F)nc-4cn3)nc2N)c(C(F)(F)F)c1 [Compound 358] registered its pEC50 at 6.54

// pEC50 value for O=[N+]([O-])c1cc(Cn2cc3nc(-c4cccc(F)c4F)nc-3cn2)ccc1Br [Compound 311] : 5.18
